- test.method.notes: 23°C color optical density (A23): absorbancy difference ε(240)-ε(0) after 240 s light irradiation at 23°C
- Assay type: physicochemical
- condition: photochromic laminate by coating method, 240 s irradiation, at the maximum absorption wavelength
measured.property: A23 (-)

// below: answered compounds
{"compound": "CCCOc1ccc(C2(c3ccc(OCCC)cc3)C=Cc3c4c(c5cc(N6CCOc7cc(C)ccc76)c(OC)cc5c3O2)-c2ccc(-c3ccc(C(F)(F)F)cc3)cc2C4(CCOC)CCOC)cc1 [Example 48 Formula (106)]", "A23 (-)": "1.36 -"}
{"compound": "COc1ccc(C2(c3ccc(OC)cc3)C=Cc3c4c(c5cc(N6CCOc7ccccc76)c(OC)cc5c3O2)-c2ccccc2C4(C)C)cc1 [Example 19 Formula (83)]", "A23 (-)": "1.34 -"}
{"compound": "CCCOc1ccc(C2(c3ccc(OCCC)cc3)C=Cc3c4c(c5cc(N(c6ccc(C)cc6)c6ccc(C)cc6)c(OC)cc5c3O2)-c2ccccc2C4(CCCCOCOC)CCCCOCOC)cc1 [Example 14 Formula (71)]", "A23 (-)": "1.89 -"}
{"compound": "CCCOc1ccc(C2(c3ccc(OC)cc3)C=Cc3c4c(c5cc(N(C)c6ccccc6)c(C)cc5c3O2)-c2ccc(C)cc2C4(CCCCOC)CCCCOC)cc1 (centres unmarked) [Example 17 Formula (79)]", "A23 (-)": "1.06 -"}
{"compound": "COCCCCC1(CCCCOC)c2ccccc2-c2c1c1c(c3cc(C)c(N(C)c4ccccc4)cc23)OC(c2ccc(C)cc2)(c2ccc(OC)cc2)C=C1 (centres unmarked) [Example 5 Formula (43)]", "A23 (-)": "1.19 -"}
{"compound": "COc1ccc(C2(c3ccc(OC)cc3)C=Cc3c4c(c5cc(N(C)c6ccccc6)c(OC)cc5c3O2)-c2ccccc2C4(C)C)cc1 [Example 1 Formula (28)]", "A23 (-)": "1.15 -"}

Fill in reported A23 (-) for this entry: COc1ccc(C2(c3ccc(OC)cc3)C=Cc3c4c(c5cc(N(C)c6ccc(F)cc6)c(OC)cc5c3O2)-c2ccccc2C4(C)C)cc1 [Example 4 Formula (34)]
1.18 -

Identify measured A23 (-) associated with CCCCCCC1(CCCCCC)c2cc(Oc3ccccc3)ccc2-c2c1c1c(c3cc(OC)c(N(c4ccccc4)c4ccc(C)cc4)cc23)OC(c2ccc(OC)cc2)(c2ccc(OCCCC)cc2)C=C1 (centres unmarked) [Example 52 Formula (119)]
1.82 -

Values from patent EP4692071A1
